Numbers sourced from patent US20170184612A1.

- System: peripheral blood mononuclear cells (PBMC), T cells
- measurement.notes: ELISpot assay, gamma-interferon release (SFC) after stimulation with a-synuclein epitope pools
- Format: cell-based, human
- study.conditions: IFNg, Pool Stimulated; number of donors with a positive response; Donors tested 1
Property: Pool +; scope: individual substances
readout: Pool +

[
  {
    "substance": "3521.0037 (LYVGSKTKEG; listed as Homo sapiens)",
    "result": 0
  },
  {
    "substance": "3521.0056 (YEMPSEEGYQ; listed as Homo sapiens)",
    "result": 0
  },
  {
    "substance": "3521.0049 (APQEGILEDM; listed as Homo sapiens)",
    "result": 0
  },
  {
    "substance": "3521.0047 (IAAATGFVKK; listed as Homo sapiens)",
    "result": 0
  },
  {
    "substance": "3521.0001 (PVDPDNEAY; listed as Homo sapiens)",
    "result": 0
  },
  {
    "substance": "3521.0077 (KTKEGVLYVGSKTKK; listed as Homo sapiens)",
    "result": 1
  },
  {
    "substance": "3521.0069 (GVAEAAGKTK; listed as Homo sapiens)",
    "result": 0
  },
  {
    "substance": "3521.0019 (APGKTKEGV; listed as Homo sapiens)",
    "result": 0
  },
  {
    "substance": "3521.0003 (SIAAATGFV; listed as Homo sapiens)",
    "result": 0
  },
  {
    "substance": "3521.0002 (PSEEGYQDY; listed as Homo sapiens)",
    "result": 0
  },
  {
    "substance": "3521.005 (APGKTKEGVL; listed as Homo sapiens)",
    "result": 0
  },
  {
    "substance": "3521.0007 (AAATGFVKK; listed as Homo sapiens)",
    "result": 0
  },
  {
    "substance": "3521.002 (AGKTKEGVL; listed as Homo sapiens)",
    "result": 0
  },
  {
    "substance": "3521.0022 (GSIAAATGF; listed as Homo sapiens)",
    "result": 0
  },
  {
    "substance": "3521.0013 (VTNVGGAVV; listed as Homo sapiens)",
    "result": 0
  },
  {
    "substance": "3521.0055 (QEGILEDMPV; listed as Homo sapiens)",
    "result": 0
  },
  {
    "substance": "3521.004 (DNEAYEMPSE; listed as Homo sapiens)",
    "result": 0
  },
  {
    "substance": "3521.0036 (AGSIAAATGF; listed as Homo sapiens)",
    "result": 0
  },
  {
    "substance": "3521.0031 (YVGSKTKEGV; listed as Homo sapiens)",
    "result": 0
  },
  {
    "substance": "3521.0073 (TTVAEKTKEQVTNVG; listed as Homo sapiens)",
    "result": 1
  },
  {
    "substance": "3521.0062 (KTKKGVVHG; listed as Homo sapiens)",
    "result": 0
  },
  {
    "substance": "3521.0041 (EGILEDMPVD; listed as Homo sapiens)",
    "result": 0
  },
  {
    "substance": "3521.0024 (DPDNEAYEM; listed as Homo sapiens)",
    "result": 0
  },
  {
    "substance": "352100.45 (KTKKGVVHGV; listed as Homo sapiens)",
    "result": 0
  },
  {
    "substance": "3521.0059 (AEAAGKTKEG; listed as Homo sapiens)",
    "result": 1
  },
  {
    "substance": "3521.0058 (SEEGYQDYEP; listed as Homo sapiens)",
    "result": 0
  },
  {
    "substance": "3521.0072 (EGVVHGVTTVAEKTK; listed as Homo sapiens)",
    "result": 1
  },
  {
    "substance": "3521.0026 (MPSEEGYQD; listed as Homo sapiens)",
    "result": 0
  },
  {
    "substance": "3521.0051 (EEGAPQEGIL; listed as Homo sapiens)",
    "result": 1
  },
  {
    "substance": "3521.0008 (IAAATGFVK; listed as Homo sapiens)",
    "result": 0
  },
  {
    "substance": "3521.0078 (YVGSKTKKGVVHGVA; listed as Homo sapiens)",
    "result": 0
  },
  {
    "substance": "3521.0038 (EMPSEEGYQD; listed as Homo sapiens)",
    "result": 0
  },
  {
    "substance": "3521.0021 (PGKTKEGVL; listed as Homo sapiens)",
    "result": 0
  },
  {
    "substance": "3521.0068 (GVAEAPGKTK; listed as Homo sapiens)",
    "result": 0
  },
  {
    "substance": "3521.0067 (KTKEGVVHG; listed as Homo sapiens)",
    "result": 0
  },
  {
    "substance": "3521.006 (VATVAEKTKE; listed as Homo sapiens)",
    "result": 1
  },
  {
    "substance": "3521.0034 (GVLYVGSKTK; listed as Homo sapiens)",
    "result": 1
  },
  {
    "substance": "3521.0065 (FVKKDQLGK; listed as Homo sapiens)",
    "result": 0
  },
  {
    "substance": "3521.0086 (ATVAEKTKEQVTNVG; listed as Homo sapiens)",
    "result": 1
  },
  {
    "substance": "3521.0023 (YEMPSEEGY; listed as Homo sapiens)",
    "result": 0
  },
  {
    "substance": "3521.0064 (GVVHGVATV; listed as Homo sapiens)",
    "result": 1
  },
  {
    "substance": "3521.0005 (AVVTGVTAV; listed as Homo sapiens)",
    "result": 0
  },
  {
    "substance": "3521.0063 (GVVHGVTTV; listed as Homo sapiens)",
    "result": 1
  }
]

* * *

- Tested on: peripheral blood mononuclear cells (PBMC), T cells
- measurement.notes: ELISpot assay, IL-5 release (SFC) after stimulation with a-synuclein epitope pools
- Assay type: cell-based, human
- study.conditions: Normals Summary; of donors tested (peptide)
readout: IL-g Peptide + (donors positive to the peptide)

[
  {
    "substance": "3521.0012 (KTKQGVAEA; listed as Homo sapiens)",
    "result": 0
  },
  {
    "substance": "3521.0016 (DVFMKGLSK; listed as Homo sapiens)",
    "result": 1
  },
  {
    "substance": "3521.001 (VFMKGLSKA; listed as Homo sapiens)",
    "result": 1
  },
  {
    "substance": "3521.0017 (FMKGLSKAK; listed as Homo sapiens)",
    "result": 0
  }
]

* * *

- Tested on: peripheral blood mononuclear cells (PBMC), T cells
- measurement.notes: ELISpot assay, IL-5 release (SFC) after stimulation with a-synuclein epitope pools
- Assay type: cell-based, human
- study.conditions: Patients Summary; PD patients; of donors tested (peptide)
readout: IL-g Peptide + (donors positive to the peptide)

[
  {
    "substance": "3521.0034 (GVLYVGSKTK; listed as Homo sapiens)",
    "result": 2
  },
  {
    "substance": "3521.0057 (NEEGAPQEGI; listed as Homo sapiens)",
    "result": 0
  },
  {
    "substance": "3521.0041 (EGILEDMPVD; listed as Homo sapiens)",
    "result": 0
  },
  {
    "substance": "3521.0062 (KTKKGVVHG; listed as Homo sapiens)",
    "result": 1
  },
  {
    "substance": "3521.0004 (KTKEGVLYV; listed as Homo sapiens)",
    "result": 0
  },
  {
    "substance": "3521.0063 (GVVHGVTTV; listed as Homo sapiens)",
    "result": 0
  },
  {
    "substance": "3521.001 (VFMKGLSKA; listed as Homo sapiens)",
    "result": 1
  },
  {
    "substance": "3521.0045 (KTKKGVVHGV; listed as Homo sapiens)",
    "result": 0
  },
  {
    "substance": "3521.0065 (FVKKDQLGK; listed as Homo sapiens)",
    "result": 0
  },
  {
    "substance": "3521.0069 (GVAEAAGKTK; listed as Homo sapiens)",
    "result": 0
  },
  {
    "substance": "3521.006 (VATVAEKTKE; listed as Homo sapiens)",
    "result": 0
  },
  {
    "substance": "3521.0084 (YVGSKTKEGVVHGVA; listed as Homo sapiens)",
    "result": 0
  },
  {
    "substance": "3521.0079 (KGVVHGVATVAEKTK; listed as Homo sapiens)",
    "result": 0
  },
  {
    "substance": "3521.008 (VAAAEKTKQGVAEAA; listed as Homo sapiens)",
    "result": 0
  },
  {
    "substance": "3521.0025 (EEGAPQEGI; listed as Homo sapiens)",
    "result": 2
  },
  {
    "substance": "3521.0016 (DVFMKGLSK; listed as Homo sapiens)",
    "result": 0
  },
  {
    "substance": "3521.0014 (KTVEGAGSI; listed as Homo sapiens)",
    "result": 0
  },
  {
    "substance": "3521.0043 (VFMKGLSKAK; listed as Homo sapiens)",
    "result": 1
  },
  {
    "substance": "3521.0055 (QEGILEDMPV; listed as Homo sapiens)",
    "result": 0
  },
  {
    "substance": "3521.0032 (GAVVTGVTAV; listed as Homo sapiens)",
    "result": 0
  },
  {
    "substance": "3521.0031 (YVGSKTKEGV; listed as Homo sapiens)",
    "result": 0
  },
  {
    "substance": "3521.0006 (VLYVGSKTK; listed as Homo sapiens)",
    "result": 2
  }
]
